# System: murine neural precursor cells (neurosphere cultures)
# MEASUREMENT PROTOCOL: HTS of LOPAC library against secondary neurosphere cultures, MTT proliferation assay at 3 μM, day 7 (z score, P value)
# Format: cell-based, mouse
# SETUP CONDITIONS: LOPAC primary screen, neurosphere MTT proliferation, 3 μM, day 7
Where a name gives a salt, the structure may show the parent alone.
Note to self: values exactly at -1 are TRUE. So Z score at or above -1 is TRUE, below is FALSE.

Query :: Please tell me: is the molecule CCOC(=O)C1=C(C)NC(C)=C(C(=O)OC)C1c1cccc(Cl)c1Cl (centres unmarked) at or over -1 in terms of Z score?
Result :: TRUE

Query :: Please tell me: is the molecule C1CNCCN1.COc1cc(C(O)CO)ccc1O.COc1cc(C(O)CO)ccc1O (racemic) at or over -1 in terms of Z score?
Result :: TRUE

Query :: Please tell me: is the molecule CCCN(CCC)C(=O)C(CCC(=O)O)NC(=O)c1ccccc1 (centres unmarked) [Proglumide] at or over -1 in terms of Z score?
Result :: FALSE

Query :: Please tell me: is the molecule CC(C)(C(=O)O)c1ccc(C(O)CCCN2CCC(C(O)(c3ccccc3)c3ccccc3)CC2)cc1 (centres unmarked) [Fexofenadine hydrochloride] at or over -1 in terms of Z score?
Result :: TRUE

Query :: Please tell me: is the molecule C[C@](N)(Cc1ccc(O)c(O)c1)C(=O)O at or over -1 in terms of Z score?
Result :: TRUE

Query :: Please tell me: is the molecule CC[C@@H]1C(=O)OC[C@@H]1Cc1cncn1C.Cl [(+)-Pilocarpine hydrochloride] at or over -1 in terms of Z score?
Result :: FALSE

Query :: Please tell me: is the molecule COc1ccccc1N1CCN(CCCCN2C(=O)c3ccccc3C2=O)CC1 [NAN-190 hydrobromide] at or over -1 in terms of Z score?
Result :: TRUE

Query :: Please tell me: is the molecule Cc1c(CC(C)(C)C(=O)O)n(Cc2ccc(Cl)cc2)c2ccc(F)cc12 at or over -1 in terms of Z score?
Result :: TRUE
